- target.under.test: recombinant human TFPI (tissue factor pathway inhibitor) (human, UniProt P10646 29-304)
- protocol: cell-based or functional assay
measurement.label: effect of inhibiting TFPI, FXa activity assay, Ab 10 nM

effect of inhibiting TFPI, FXa activity assay, Ab 10 nM in this record for clone A67 (antibody, V domains shown) VH: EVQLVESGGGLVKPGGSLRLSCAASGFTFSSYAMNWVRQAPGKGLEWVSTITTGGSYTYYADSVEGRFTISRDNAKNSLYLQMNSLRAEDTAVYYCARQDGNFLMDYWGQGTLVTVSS VL: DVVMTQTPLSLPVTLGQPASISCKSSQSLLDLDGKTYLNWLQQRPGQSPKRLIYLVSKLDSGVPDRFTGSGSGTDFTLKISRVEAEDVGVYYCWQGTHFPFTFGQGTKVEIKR : ~67%

effect of inhibiting TFPI, FXa activity assay, Ab 10 nM in this record for clone 11 (antibody, V domains shown) VH: EVQLVESGGGLVKPGGSLRLSCAASGFTFSSYAMNWVRQAPGKGLEWVGTITTGGSYTYYADSVEGRFTISRDNAKNSLYLQMNSLRAEDTAVYYCARQDGNFLMDYWGQGTLVTVSS VL: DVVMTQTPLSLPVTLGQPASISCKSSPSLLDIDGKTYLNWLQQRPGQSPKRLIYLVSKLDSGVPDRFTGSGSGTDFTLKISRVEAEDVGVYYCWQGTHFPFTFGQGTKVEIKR : ~81%

effect of inhibiting TFPI, FXa activity assay, Ab 10 nM in this record for clone 4017 (antibody, V domains shown) VH: EVQLVESGGGLVKPGGSLRLSCAASGFTFSSYAMNWVRQAPGKGLEWVGTITTGGSYTYYADSVQGRFTISRDNAKNSLYLQMNSLRAEDTAVYYCARQDGYFLMDYWGQGTLVTVSS VL: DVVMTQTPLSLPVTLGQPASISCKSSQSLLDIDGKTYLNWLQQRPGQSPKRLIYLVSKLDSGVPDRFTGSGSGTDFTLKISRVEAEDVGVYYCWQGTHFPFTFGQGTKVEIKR : ~70%

effect of inhibiting TFPI, FXa activity assay, Ab 10 nM in this record for clone 2 (antibody, V domains shown) VH: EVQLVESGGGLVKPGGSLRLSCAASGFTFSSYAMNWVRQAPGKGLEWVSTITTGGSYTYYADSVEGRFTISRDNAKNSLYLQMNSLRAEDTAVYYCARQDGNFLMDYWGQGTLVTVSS VL: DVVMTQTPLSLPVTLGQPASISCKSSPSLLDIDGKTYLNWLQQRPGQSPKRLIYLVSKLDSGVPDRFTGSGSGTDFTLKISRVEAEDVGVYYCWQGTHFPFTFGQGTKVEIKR : ~79%

effect of inhibiting TFPI, FXa activity assay, Ab 10 nM in this record for clone 12 (antibody, V domains shown, human IgG4/kappa IgG as purified; also called No. 12 antibody) VH: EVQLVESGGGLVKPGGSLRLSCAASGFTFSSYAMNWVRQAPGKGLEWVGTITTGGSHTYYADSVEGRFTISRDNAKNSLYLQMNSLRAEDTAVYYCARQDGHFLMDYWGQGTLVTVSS VL: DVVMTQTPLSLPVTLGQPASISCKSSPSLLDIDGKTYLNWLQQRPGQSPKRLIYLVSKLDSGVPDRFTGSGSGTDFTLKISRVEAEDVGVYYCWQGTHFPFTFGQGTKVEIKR : ~82%
